Recorded values, source PubChem BioAssay AID1963445.

Test system: MCF7 complex spheroid growth, % test/control
run-description: Anticancer human tumor MCF7 cell line growth inhibition [Asc];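 note: spheroids exposed to compounds for 7 days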
condition-parameters: curve of first compound; second compound 0.3 µM
pIC50: −log10 of the molar value.
Collected pIC50 values appear next to each entry.

Past entries and their recorded results:
Supply recorded pIC50 for CCN1CCN(Cc2ccc(Nc3ncc(F)c(-c4cc(F)c5nc(C)n(C(C)C)c5c4)n3)nc2)CC1 + CCN1C(C(=O)NC23CCC(C(=O)O)(CC2)CC3)C(c2cccc(Cl)c2F)C2(C(=O)Nc3cc(Cl)ccc32)C12CCCCC2 here.
> 8.50

Supply recorded pIC50 for CNC(C)C(=O)NC1CN(S(=O)(=O)c2cccc(S(=O)(=O)N3CCC4CCC(C(=O)NC(c5ccccc5)c5ccccc5)N4C(=O)C(NC(=O)C(C)NC)C3)c2)CCC2CCC(C(=O)NC(c3ccccc3)c3ccccc3)N2C1=O (stereo not given) + CCN1C(C(=O)NC23CCC(C(=O)O)(CC2)CC3)C(c2cccc(Cl)c2F)C2(C(=O)Nc3cc(Cl)ccc32)C12CCCCC2 here.
> 8.50

Supply recorded pIC50 for O=C(c1ccc(F)c(F)c1Nc1ccc(I)cc1F)N1CC(O)([C@@H]2CCCCN2)C1 + CCN1C(C(=O)NC23CCC(C(=O)O)(CC2)CC3)C(c2cccc(Cl)c2F)C2(C(=O)Nc3cc(Cl)ccc32)C12CCCCC2 here.
> 8.50

Supply recorded pIC50 for NC(=O)C(=Cn1cnc(-c2cc(C(F)(F)F)cc(C(F)(F)F)c2)n1)c1cncnc1 + CCN1C(C(=O)NC23CCC(C(=O)O)(CC2)CC3)C(c2cccc(Cl)c2F)C2(C(=O)Nc3cc(Cl)ccc32)C12CCCCC2 here.
> 9.02

--- query ---
Supply recorded pIC50 for Cc1nc(N2CCC3(CC2)COC(C)C3N)c(CO)nc1Sc1ccnc(N)c1Cl (stereo not given) + CCN1C(C(=O)NC23CCC(C(=O)O)(CC2)CC3)C(c2cccc(Cl)c2F)C2(C(=O)Nc3cc(Cl)ccc32)C12CCCCC2 here.
> 8.02
